System: larvae of diamond-back moth (Plutilla xylostella Linn'e)
PROCEDURE SUMMARY: Test Example 10: insecticidal activity against larvae of diamond-back moth
Format: in vivo
STATED CONDITIONS: 400 ppm, first-instar larvae, three days; 4320 min
ASSAY ENDPOINT: Mortality (%)

compound="CCC(C)N=C1SCN(c2cccc(C)c2)C(=O)N1C(C)CC (stereo not shown) [Compound 327]" meas_value=100
compound="COCCN1C(=O)N(c2ccc(Cl)cc2)CSC1=NC(C)C [Compound 207]" meas_value=100
compound="CC(C)N=C1SCN(c2ccc([N+](=O)[O-])cc2[N+](=O)[O-])C(=O)N1C(C)C [Compound 366]" meas_value=100
compound="CCN=C1SCN(c2cccc(C)c2)C(=O)N1CC [Compound 324]" meas_value=100

---

Listed compounds paired with reported mortality at 400 ppm
Test system: larvae of white-backed planthopper (Sogatella furcifera Horvath)
PROCEDURE SUMMARY: Test Example 2: insecticidal activity against larvae of white-backed planthopper
Format: in vivo
STATED CONDITIONS: 168 h, 400 ppm, first-instar larvae, 25° C., seven days after treatment, read-out: Mortality
Protocol: Insecticidal activity against larvae of white-backed planthopper (Sogatella furcifera Horvath). Testing method: Five rice seedlings of the 1.5 leaf age were dipped in a test composition of 400 ppm concentration for 30 seconds. After air-drying, the seedlings were placed in a glass tube containing 1 ml of water and infested with five first-instar larvae of white-backed planthopper. […] Mortality was calculated from the results of 3-replication test.
ASSAY ENDPOINT: mortality at 400 ppm (%)

smi=CC(C)CN1CSC(=NC(C)C)N(C(C)C)C1=O tested_on="larvae of white-backed planthopper (Sogatella furcifera Horvath)" meas_value=100
smi=CC(C)N=C1SCN(c2ccccc2)C(=O)N1C(C)C tested_on="larvae of white-backed planthopper (Sogatella furcifera Horvath)" meas_value=100
smi=CC(C)N1C(=O)N(C(C)(C)C)CSC1=NC(C)(C)CC(C)(C)C tested_on="larvae of white-backed planthopper (Sogatella furcifera Horvath)" meas_value=100
smi=CN=C1SCN(C(C)(C)C)C(=O)N1C tested_on="larvae of white-backed planthopper (Sogatella furcifera Horvath)" meas_value=100
smi=CCCCN1CSC(=NC(C)C)N(C)C1=O tested_on="larvae of white-backed planthopper (Sogatella furcifera Horvath)" meas_value=100

---

Test system: cirrus red mite (Panonychus citri McGregor)
PROCEDURE SUMMARY: Test Example 4: activity to citrus red mite (Rothamstead method)
Type: in vivo
Set-up: concentration or dose not given beside the values
STATED CONDITIONS: two days after treatment, 25° C.; 2880 min
Listed compounds paired with reported Mortality
ASSAY ENDPOINT: Mortality

compound="CCN1CSC(=NC(C)C)N(C(C)C)C1=O [Compound 8]" assay_endpoint=Mortality meas_value=80%
compound="CN1C(=O)N(C(C)(C)CC(C)(C)C)CSC1=NC(C)(C)C [Compound 63]" assay_endpoint=Mortality meas_value=50%
compound="CN=C1SCN(C(C)(C)C)C(=O)N1c1ccc(Cl)cc1C [Compound 82]" assay_endpoint=Mortality meas_value=100%
compound="CC(C)N=C1SCN(C(C)(C)C)C(=O)N1C [Compound 33]" assay_endpoint=Mortality meas_value=100%
compound="CCN=C1SCN(C(C)(C)C)C(=O)N1c1ccccc1C [Compound 80]" assay_endpoint=Mortality meas_value=100%
compound="Cc1ccc(N2CSC(=NC(C)C)N(C(C)C)C2=O)cc1 [Compound 316]" assay_endpoint=Mortality meas_value=100%
compound="CN1C(=O)N(C2CCCCC2)CSC1=NC(C)(C)C [Compound 53]" assay_endpoint=Mortality meas_value=100%
compound="CN=C1SCN(C(C)C)C(=O)N1C [Compound 16]" assay_endpoint=Mortality meas_value=100%
compound="CC(C)CN1CSC(=NC(C)C)N(C(C)C)C1=O [Compound 27]" assay_endpoint=Mortality meas_value=100%
compound="Cc1ccc(N=C2SCN(C(C)(C)C)C(=O)N2C)cc1 [Compound 72]" assay_endpoint=Mortality meas_value=80%
compound="CCN1C(=O)N(C(C)(C)C)CSC1=NC(C)(C)C [Compound 42]" assay_endpoint=Mortality meas_value=100%
compound="CN=C1SCN(C(C)C)C(=O)N1c1ccccc1 [Compound 66]" assay_endpoint=Mortality meas_value=50%
